Ref: BindingDB's records for doi:10.1016/j.ejmech.2020.112549

# test name: Inhibition of reverse transcriptase L100I mutant in HIV-1 3B infected in human MT4 cells assessed as reduction in virus-induced cytopathic effect incubated for 5 days by MTT assay
Quick list: pEC50 per entry.
Lab note — pEC50 values are minus log10 of concentrations in M.

Solved entries:
Cc1cc(-c2ccc(C#N)cc2)cc(C)c1C(O)c1ccnc(Nc2ccc(C#N)cc2)n1 (stereo not drawn) = 7.31
N#Cc1ccc(Nc2nccc([C@@H](O)c3ccc(-c4ccc(C#N)cc4)cc3Cl)n2)cc1 = 7.28

--- query ---
Would you mind telling me what pEC50 value was observed for Cc1cc(-c2ccc(C#N)cc2)ccc1[C@@H](O)c1ccnc(Nc2ccc(C#N)cc2)n1 ?
5.58
